TARGET_SYSTEM: human metabotropic Glutamate 4 receptor (mGluR4) (Homo sapiens (Human), UniProt Q14833)
Sequence (Q14833 33-912): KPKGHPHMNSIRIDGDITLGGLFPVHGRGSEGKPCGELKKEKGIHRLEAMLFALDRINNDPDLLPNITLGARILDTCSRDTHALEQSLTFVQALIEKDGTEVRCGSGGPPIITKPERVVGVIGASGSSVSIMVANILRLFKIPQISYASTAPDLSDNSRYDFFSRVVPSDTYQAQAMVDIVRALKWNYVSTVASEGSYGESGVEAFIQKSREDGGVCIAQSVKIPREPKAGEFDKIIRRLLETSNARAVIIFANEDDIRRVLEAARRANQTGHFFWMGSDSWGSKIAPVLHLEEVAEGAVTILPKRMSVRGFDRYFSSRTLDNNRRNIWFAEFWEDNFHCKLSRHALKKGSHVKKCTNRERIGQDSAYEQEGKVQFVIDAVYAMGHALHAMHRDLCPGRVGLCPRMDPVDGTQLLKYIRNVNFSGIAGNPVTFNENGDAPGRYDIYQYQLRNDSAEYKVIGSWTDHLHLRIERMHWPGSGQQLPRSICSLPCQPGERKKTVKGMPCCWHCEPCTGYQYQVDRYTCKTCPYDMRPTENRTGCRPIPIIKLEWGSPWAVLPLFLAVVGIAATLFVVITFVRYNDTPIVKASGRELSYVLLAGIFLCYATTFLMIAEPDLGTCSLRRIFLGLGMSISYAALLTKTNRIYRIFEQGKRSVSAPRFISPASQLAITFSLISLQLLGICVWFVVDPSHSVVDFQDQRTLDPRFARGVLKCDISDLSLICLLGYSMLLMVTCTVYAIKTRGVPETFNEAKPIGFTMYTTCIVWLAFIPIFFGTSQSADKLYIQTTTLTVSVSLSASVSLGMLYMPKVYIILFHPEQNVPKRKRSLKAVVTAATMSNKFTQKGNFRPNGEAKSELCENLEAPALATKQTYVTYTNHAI
METHOD_SUMMARY: Assay A: in vitro testing of mGluR4 potency (glutamate-induced cAMP lowering, HTRF cAMP)
ASSAY_CONDITIONS: HEK293 cells overexpressing human mGluR4; 10 uM L-glutamic acid, 1 uM forskolin; compounds of the present invention
READOUT: IC50 (nM)

A: Cc1cnc(C(=O)N[C@H](c2nc3cc(OC(F)(F)F)ccc3n2C)[C@@H]2CCCOC2)cn1
B: COCCn1c([C@@H](NC(=O)c2cnc(C)cn2)C2CC2)nc2c(C)c(C#N)ccc21
Prompt: Field: lower recorded IC50 (choose A or B ) When you have decided, please share the label of that item.
Response: B

1: COCCn1c([C@@H](NC(=O)c2cnc(C(F)F)cn2)[C@H]2CCOC2)nc2cc(C(F)(F)F)ccc21
2: COCCn1c([C@@H](NC(=O)c2cnc(C)cn2)[C@H]2CCCOC2)nc2cc(C(F)(F)F)ccc21
Prompt: Among 1 and 2 , whose measured IC50 is the smaller figure? Selection: enter the item's label.
Response: 2
